- measurementTarget: GLP-1R (Homo sapiens (Human), UniProt P43220)
- Sequence (P43220 24-463): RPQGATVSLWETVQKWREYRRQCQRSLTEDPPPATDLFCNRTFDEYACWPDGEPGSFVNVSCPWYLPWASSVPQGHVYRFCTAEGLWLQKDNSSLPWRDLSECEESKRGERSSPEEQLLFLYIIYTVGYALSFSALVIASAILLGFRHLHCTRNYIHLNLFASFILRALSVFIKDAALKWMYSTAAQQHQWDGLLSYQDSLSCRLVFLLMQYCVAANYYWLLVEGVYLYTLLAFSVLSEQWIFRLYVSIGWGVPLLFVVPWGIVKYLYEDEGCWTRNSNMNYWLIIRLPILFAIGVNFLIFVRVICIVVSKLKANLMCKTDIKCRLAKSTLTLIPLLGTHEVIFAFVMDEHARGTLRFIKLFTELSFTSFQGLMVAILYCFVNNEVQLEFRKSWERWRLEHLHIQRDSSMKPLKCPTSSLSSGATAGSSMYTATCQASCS
- assayNotes: GLP-1R activation: cAMP increase in CHO cells stably expressing GLP-1R
- Format: cell-based
- conditionsUsed: cAMP increase, 10 point dose response, 30 minutes incubation at 37° C., read-out: EC50
// reported pEC50 for each item listed
Conceptually, pEC50 converts a concentration in mol/L into minus its log10.

COCCn1c(Cc2ccc(-c3cccc4c3OC(C)(c3ccc(Cl)cc3F)O4)cc2F)nc2ccc(C(=O)O)cc21 (stereo not drawn) [Example 80] : 7.96
COCCn1c(Cc2cc(F)c(-c3cccc4c3OC(C)(c3ccc(C#N)cc3F)O4)cc2F)nc2c(F)cc(C(=O)O)cc21 (stereo not drawn) [Example 62] : 8.60
N#Cc1ccc(C2Oc3cccc(-c4cc(F)c(Cc5nc6ccc(C(=O)O)cc6n5C[C@@H]5CCO5)c(F)c4)c3O2)c(F)c1 (single isomer, unassigned) [Example 41] : 6.36
CC1(c2ccc(Cl)cc2F)Oc2cccc(-c3ccc(Cc4nc5ccc(C(=O)O)cc5n4CC4(n5ccnn5)CC4)c(F)c3)c2O1 (stereo not drawn) [Example 109] : 8.04
CC1(c2ccc(Cl)cc2F)Oc2cccc(-c3cc(F)c(Cc4nc5ccc(C(=O)O)nc5n4CC4(CC#N)CC4)cc3F)c2O1 (stereo not drawn) [Example 75] : 9.15

Shift focus to the following entry.
Task: Can you share its pEC50? I mean this compound: COCCn1c(Cc2cc(F)c(-c3cccc4c3OC(c3ccc(C#N)cc3F)O4)cc2F)nc2ccc(C(=O)O)cc21 (single isomer, unassigned) [Example 40]
Output: 5.91

Attribution: patent US20250099431A1
